- Read-out: Tumor necrosis factor receptor superfamily member 6 (Homo sapiens) (UniProt P25445)
- method summary: LTEA_HepaRG_FAS: Life Technologies and Expression Analysis (LTEA) Assay for Fas cell surface death receptor (FAS) using HepaRG (AID 2283447)
- condition notes: mRNA level, 48 h; actives raise or lower the signal
Active and inactive are the calls of the source. Rule for the calls: active = hit-call score of the fitted dose curve at least 0.9, where 1 is the maximum; inactive = score below 0.9.
Just give me one of these, please: 1 = active, -1 = inactive

Ask | Hey, what did the test say about CCCCOCCO ?
Reply | -1

Ask | Hey, what did the test say about Nc1cccc2c(N)cccc12 ?
Reply | -1

Ask | Hey, what did the test say about Cc1cc(C)c(O)c(C)c1 ?
Reply | -1

Ask | Hey, what did the test say about CCC(C)(C)C1CCC(O)CC1 (centres undefined) ?
Reply | -1

Ask | Hey, what did the test say about COCC(C)O (centres undefined) ?
Reply | -1

Ask | Hey, what did the test say about c1ccc2cc3c(ccc4ccccc43)cc2c1 ?
Reply | -1

Ask | Hey, what did the test say about OC1CCCCC1 ?
Reply | -1

Ask | Hey, what did the test say about O=C(O)Cc1cc(I)c(Oc2cc(I)c(O)c(I)c2)c(I)c1 ?
Reply | -1

Ask | Hey, what did the test say about CN(C)C=O ?
Reply | -1

Ask | Hey, what did the test say about c1ccc2c(c1)Cc1ccccc1-2 ?
Reply | -1

Ask | Hey, what did the test say about CC[C@H](C)[C@@H](C(=O)O)n1sc2ccccc2c1=O ?
Reply | -1

Ask | Hey, what did the test say about CC(=O)CC(C)(C)O ?
Reply | -1

Ask | Hey, what did the test say about CN1CCN(c2ccccc2/C=C2\SCCN(c3ccc(Cl)c(Cl)c3)C2=O)CC1 ?
Reply | -1

Ask | Hey, what did the test say about CCCOC(=O)c1ccc(O)cc1 ?
Reply | -1

Ask | Hey, what did the test say about OCCC(F)(F)C(F)(F)C(F)(F)C(F)(F)C(F)(F)C(F)(F)F ?
Reply | -1

Ask | Hey, what did the test say about CCCOc1sc(C(=O)N2CCC(c3cc(CN)ccc3F)CC2)c(C)c1Br ?
Reply | -1

Ask | Hey, what did the test say about N#C[C@@H]1CC(F)(F)CN1C(=O)CNC1CC2CCC(C1)N2c1ncccn1 (some centres undefined) ?
Reply | -1

Ask | Hey, what did the test say about ClC1=C(Cl)C(Cl)(Cl)C(Cl)=C1Cl ?
Reply | -1

Ask | Hey, what did the test say about CCCCCCCCC(=O)O ?
Reply | -1

Ask | Hey, what did the test say about CC[C@H](c1ccc(O)cc1)[C@@H](CC)c1ccc(O)cc1 ?
Reply | 1

Ask | Hey, what did the test say about C#C[C@]1(O)CC[C@H]2[C@@H]3CCC4=CC(=O)CC[C@@H]4[C@H]3CC[C@@]21C ?
Reply | -1

Ask | Hey, what did the test say about O=c1c(-c2ccc(O)cc2)coc2cc(O)ccc12 ?
Reply | -1

Ask | Hey, what did the test say about CN1CCC[C@H]1c1cccnc1 ?
Reply | -1

Ask | Hey, what did the test say about Cc1oc(-c2ccccc2)nc1CCOc1ccc(C[C@H](Nc2ccccc2C(=O)c2ccccc2)C(=O)O)cc1 ?
Reply | 1

Ask | Hey, what did the test say about COc1ccc([N+](=O)[O-])cc1N ?
Reply | -1

Ask | Hey, what did the test say about Oc1cc2ccccc2c2ccccc12 ?
Reply | -1

Ask | Hey, what did the test say about CCCCCCCCCCCCCCCS(=O)(=O)Oc1ccccc1 ?
Reply | -1

Ask | Hey, what did the test say about c1ccc2c(c1)ccc1ccccc12 ?
Reply | -1

Ask | Hey, what did the test say about CCc1nn(C2CCCCC2)c2cc(C3(C#N)CCC(C(=O)O)CC3)ccc12 (centres undefined) ?
Reply | 1

Ask | Hey, what did the test say about NC(=O)N(O)[C@@H]1C=C[C@H](Oc2cccc(Oc3ccc(F)cc3)c2)C1 ?
Reply | 1

Ask | Hey, what did the test say about CCCCC(CC)COC(=O)CCCCC(=O)OCC(CC)CCCC (centres undefined) ?
Reply | -1

Ask | Hey, what did the test say about CC(O)CO (centres undefined) ?
Reply | -1

Ask | Hey, what did the test say about O=[N+]([O-])c1ccc(O)cc1 ?
Reply | -1

Ask | Hey, what did the test say about COC(=O)CCCCC(=O)OC ?
Reply | -1

Ask | Hey, what did the test say about CCC(=C(c1ccc(O)cc1)c1ccc(OCCN(C)C)cc1)c1ccccc1 ?
Reply | -1

Ask | Hey, what did the test say about CCCCCCCCCCCCN1CCCC1=O ?
Reply | -1

Ask | Hey, what did the test say about CCN(CC)CCNc1ccc(CNC=O)c2sc3ccc(OC)cc3c(=O)c12 ?
Reply | -1

Ask | Hey, what did the test say about CCc1ccc(CCOc2ccc(CC3SC(=O)NC3=O)cc2)nc1 (centres undefined) ?
Reply | -1

Ask | Hey, what did the test say about O=C(OCCOCCOC(=O)c1ccccc1)c1ccccc1 ?
Reply | -1
